Give measured IC50 for each item. Keep answers brief.
target: GST-tagged recombinant human RIPK2 (Homo sapiens (Human)); experiment: RIP2 Kinase Assay (ADP-Glo); details: 25 µM ATP, MBP substrate, 30° C. 60 minutes
Sequence (O43353 whole entry): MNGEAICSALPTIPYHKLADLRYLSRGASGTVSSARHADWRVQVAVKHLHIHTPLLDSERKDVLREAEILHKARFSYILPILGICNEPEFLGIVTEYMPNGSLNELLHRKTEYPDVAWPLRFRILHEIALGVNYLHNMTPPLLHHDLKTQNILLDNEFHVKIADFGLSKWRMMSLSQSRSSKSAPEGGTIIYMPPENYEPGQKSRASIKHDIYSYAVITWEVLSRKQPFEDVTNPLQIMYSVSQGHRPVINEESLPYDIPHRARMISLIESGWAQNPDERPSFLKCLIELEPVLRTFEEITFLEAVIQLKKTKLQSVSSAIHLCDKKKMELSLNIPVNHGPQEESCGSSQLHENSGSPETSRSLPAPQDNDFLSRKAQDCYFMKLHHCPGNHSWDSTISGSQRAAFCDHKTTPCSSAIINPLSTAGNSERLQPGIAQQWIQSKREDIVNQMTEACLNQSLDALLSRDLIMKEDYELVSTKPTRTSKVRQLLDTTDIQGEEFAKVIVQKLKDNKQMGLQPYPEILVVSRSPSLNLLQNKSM
One number for each entry, in nM.

# annotated cases, reported IC50 shown
| compound | quantity kind | readout value |
| --- | --- | --- |
| CC(C)c1c(-c2ccn3nc(NC(=O)[C@@H]4C[C@@H]4F)cc3c2)cnc2[nH]ccc12 | IC50 | 828 |
| O=C(Nc1cc2cc(-c3cnc4[nH]cc(F)c4c3Cl)ccn2n1)[C@@H]1C[C@@H]1F | IC50 | 10.2 |

Please look at the following molecule next.
Return the recorded IC50 value; entry: Cc1c(-c2ccn3nc(NC(=O)C4CC4)cc3c2)cnc2[nH]ccc12
11.4
